Assayed Target: Cytochrome P450 3A4 (Homo sapiens, UniProt P08684);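 also: CYP3A4 tested as one member of a cytochrome P450 panel screen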
Sequence (P08684 whole entry): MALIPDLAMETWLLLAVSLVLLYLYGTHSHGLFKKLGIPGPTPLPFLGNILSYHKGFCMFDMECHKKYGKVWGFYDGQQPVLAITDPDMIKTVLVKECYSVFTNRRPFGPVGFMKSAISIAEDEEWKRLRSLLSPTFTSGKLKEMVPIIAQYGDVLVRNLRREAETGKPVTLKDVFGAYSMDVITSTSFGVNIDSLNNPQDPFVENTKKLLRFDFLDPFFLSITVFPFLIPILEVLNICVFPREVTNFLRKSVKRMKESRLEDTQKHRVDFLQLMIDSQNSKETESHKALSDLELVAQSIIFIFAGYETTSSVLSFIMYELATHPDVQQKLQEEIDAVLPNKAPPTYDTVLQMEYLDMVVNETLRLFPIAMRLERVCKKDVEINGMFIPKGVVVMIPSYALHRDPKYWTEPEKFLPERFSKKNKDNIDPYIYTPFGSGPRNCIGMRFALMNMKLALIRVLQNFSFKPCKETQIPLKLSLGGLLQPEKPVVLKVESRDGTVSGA
Assignment: determine reported AC50 for the given compounds.

Guide cases for AC50, answers given:
Compound | AC50
CCCCN1C(=O)NC(=O)/C(=C(/CC)NCc2ccc(F)cc2)C1=O | 28.2 µM (inconclusive)
O=C(NCCOc1nc(N2CCOCC2)nc(N2CCOCC2)n1)Nc1ccccc1 | 22.4 µM (inconclusive)
COCCCN1C(=O)C(O)=C(C(=O)c2ccc(OC)cc2C)C1c1cccnc1 (stereo not drawn) | 20 µM (inconclusive)
Cc1nn2c(NCC(C)C)c3c(nc2c1-c1ccccc1)CCC3 | 10 µM (inconclusive)
c1ccc(C[C@@H](c2ccccc2)N2CCCCC2)cc1 | 31.6 µM (inconclusive)
COc1ncc2ncc(=O)n(Cc3cccs3)c2n1 | 1.26 µM (inconclusive)
Cc1c(C=O)c2ccccn2c1C(=O)c1ccncc1 | 10 µM (inconclusive)
NS(=O)(=O)c1ccc(/N=N\c2cc3ccccc3c(C(=O)O)c2O)cc1 | 3.16 µM (inconclusive)

Field: AC50. Fill in for each record below.
1. c1ccc(N2CCC3(CCNCC3)CC2)nc1
2. Cc1ccc(-n2c(C)cc(/C=C(\C#N)C(=O)NCC3CCCO3)c2C)cc1 (stereo not drawn)
3. O=S(=O)(c1ccccc1)N1CCC2(CC1)CN(c1ccccn1)C2
4. CCNc1ncc2nc(-c3cccs3)c(=O)n(CCc3ccccc3)c2n1

*A*
25.1 µM (inconclusive)
31.6 µM (inconclusive)
12.6 µM (inconclusive)
15.8 µM (inconclusive)

Field: AC50. Fill in for each record below.
1. O=C(NCCN1CCN(C(=O)c2cc3ccccc3oc2=O)CC1)c1cc2ccccc2oc1=O
2. O=C1CCC[C@@H](C(C(=O)OCc2ccccc2)C(=O)OCc2ccccc2)C1

*A*
1: 14.1 µM (inconclusive); 2: 3.98 µM (inconclusive)

Field: AC50. Fill in for each record below.
1. Cc1ccc(S(=O)(=O)NCCSc2nnnn2C)cc1
2. COCCn1c(=O)c(-c2cccs2)nc2cnc(OCc3ccccc3)nc21
3. Cc1cccc(Oc2coc3cc(OC(=O)c4cc5ccccc5oc4=O)ccc3c2=O)c1
4. CCc1ccc(OCC(=O)NC(=S)Nc2ccc(C)cc2C)c(Br)c1
5. Nc1cc(N)nc(SCC(=O)c2ccccc2)n1
6. CN1CCN(c2ncnc3ccc(-c4ccc(C(=O)N(C)C)cc4)cc23)CC1
7. CC(C)N(CCC(=O)c1ccc2ccccc2c1)Cc1ccccc1

*A*
["14.1 µM (inconclusive)", "3.16 µM (inconclusive)", "39.8 µM (inconclusive)", "31.6 µM (inconclusive)", "35.5 µM (inconclusive)", "25.1 µM (inconclusive)", "39.8 µM (inconclusive)"]

* * *

Assayed Target: Methionyl-tRNA synthetase, putative (Trypanosoma brucei brucei)
Sequence (Q38C91 whole entry): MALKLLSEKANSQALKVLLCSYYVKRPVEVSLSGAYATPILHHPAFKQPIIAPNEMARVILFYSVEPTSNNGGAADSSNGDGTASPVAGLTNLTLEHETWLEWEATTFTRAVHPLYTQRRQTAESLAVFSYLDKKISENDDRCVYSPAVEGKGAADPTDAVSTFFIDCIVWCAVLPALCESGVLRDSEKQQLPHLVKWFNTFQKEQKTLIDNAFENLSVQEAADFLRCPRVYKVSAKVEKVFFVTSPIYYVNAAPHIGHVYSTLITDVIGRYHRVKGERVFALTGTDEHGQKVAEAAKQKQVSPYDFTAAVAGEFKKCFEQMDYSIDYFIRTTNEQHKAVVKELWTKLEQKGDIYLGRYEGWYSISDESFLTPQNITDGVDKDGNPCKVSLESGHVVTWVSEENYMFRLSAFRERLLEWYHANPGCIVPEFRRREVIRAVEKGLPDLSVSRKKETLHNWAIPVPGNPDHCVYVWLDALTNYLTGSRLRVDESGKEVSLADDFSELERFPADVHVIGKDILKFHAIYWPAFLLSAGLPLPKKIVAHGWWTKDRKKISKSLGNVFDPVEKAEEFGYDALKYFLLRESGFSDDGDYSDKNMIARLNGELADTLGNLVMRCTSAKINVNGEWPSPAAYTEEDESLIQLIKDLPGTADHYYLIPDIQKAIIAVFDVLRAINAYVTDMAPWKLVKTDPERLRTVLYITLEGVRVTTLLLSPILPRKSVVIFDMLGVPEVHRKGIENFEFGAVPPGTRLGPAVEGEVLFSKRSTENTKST
Format: functional, Trypanosoma brucei brucei strain 927/4 GUTat10.1
The source made the active and inactive calls.
I would appreciate it if you answered using one of these outcomes: Y = active, N = inactive

Example results:
Compound | Label Value
Cc1ccc(-c2c[nH]c(C(O)c3cc(Cl)cc(Cl)c3)n2)cc1 (centres undefined) | Y
O=C(CC(=O)Nc1ccc(Cl)c(Cl)c1)N/N=C/c1ccc(O)cc1 | N
O=C(C/C=N\OCc1ccc([N+](=O)[O-])cc1)Nc1ccc(Cl)cc1 | Y

Query compound follows.
*Q* Query: recorded result category for Cc1c(NS(=O)(=O)c2cc(C(=O)NCc3cccc(Cl)c3)ccc2Cl)c(=O)n(-c2ccccc2)n1C in this test
*A* N
